Tested on: OVCAR-4 ovarian
Assay: NCI-60 one-dose screen, 48 h (100 = growth as untreated, 0 = no growth, -100 = all killed)
Details: 10 µM
About 83,000 compounds went through this panel and 20% of them were active in at least one assay; those are over-represented in the sample as a whole.
Returns: string. Value is label 1 if measured growth is below 70%, and label 0 if it is greater than or equal to it.

CS(=O)(=O)Nc1ccc([N+](=O)[O-])cc1Oc1ccccc1 : label 0
Cc1nn2c(/C=C3/C(=O)Nc4ccc(Cl)cc43)c(-c3ccccc3)nc2s1 : label 1
COc1ccc(-n2nnc3c(sc4ccccc43)c2=O)cc1 : label 1

Query: Take the compound "O=c1oc2c3ccc4cnccc4c3[nH]c2c2ccccc12" and say whether its growth is less than 70%.
Response: label 1

* * *

System: IGROV1 ovarian
Assay: NCI-60 one-dose screen, 48 h (100 = growth as untreated, 0 = no growth, -100 = all killed)
Details: 10 µM
The panel holds about 83,000 compounds, 20% with a hit somewhere; the sample as a whole holds those more often.
growth vs 80%: at or above is yes, below is no.

Example results:
COC(=O)CCCCCCCCC(C)c1ccc(C(C)=O)cc1 (stereo not given) : yes
C#Cc1ccc(-n2c(/C=C/c3cc(OC)c(OC)c(OC)c3)nc3ncccc3c2=O)cc1 : no

Query: Determine whether measured growth meets or exceeds 80% for CN1/C(=C\C(I)C(I)C2=[N+](C)c3ccccc3C2(C)C)C(C)(C)c2ccccc21 (stereo not given)
Response: no

* * *

Tested on: SNB-75 CNS
Assay: NCI-60 one-dose screen, 48 h (100 = growth as untreated, 0 = no growth, -100 = all killed)
Conditions: 10 µM
Procedure: Growth inhibition of the SNB-75 human tumor cell line is measured as a screen for anti-cancer activity. Cells are grown in 96 well plates and exposed to the test compound for 48 hours. Compounds are tested at a single concentration, which is 10^-5 M for most compounds. The reported endpoint is percent growth (GI% or GIPRCNT), where numbers from 0 - 100% represent growth inhibition, and numbers from -100% - 0 represent cell death. For example, a value of 40 represents 60% growth inhibition. […]
Compounds without any hit were thinned out: in the full panel of roughly 83,000, 20% have a hit.
// reported growth per item
Please respond with the number in % and leave the unit unwritten.

Worked cases, growth given:
COc1ccc(-c2nc(-c3nc4ccc(C)cc4[nH]3)c3ccccn23)cc1 : 66.6
COc1ccc(-c2csc(-c3cc(Cl)cc(Cl)c3Cl)n2)cc1 : 91.6
CC1(C)CCc2cc(-c3ccn(S(=O)(=O)c4ccc(Cl)cc4)n3)ccc2O1 : 92.3
S=C(Cc1ccc(-c2ccccc2)cc1)N1CCOCC1 : 83.1
Cc1cc(C#Cc2ccccc2)ccc1-n1c(/C=C/c2cc(O)ccc2O)nc2ccccc2c1=O : 16.2

Quick note, growth for "COc1cc(-c2nc3ccc(C)cc3[nH]2)ccc1OCC(=O)N=Nc1c(O)[nH]c2ccccc12" landed at -34.8

Quick note, growth for "COc1ccc(-c2nnc(COc3ccc(NC(=O)Nc4cccc(C(F)(F)F)c4)cc3F)o2)cc1" landed at 79.6

Quick note, growth for "[O-]c1c[n+](-c2ccc(Cl)cc2)no1" landed at 90.4

Quick note, growth for "COc1c(C)c(C)c(OC)c2c1[nH]c(=O)c1c3cccnc3cn21" landed at 106

Quick note, growth for "CCCCNC(=O)Oc1ccc(/C(=C(\C)c2ccc(OC)cc2)c2ccc(OCCN3CCCCC3)cc2)cc1" landed at 70.6

* * *

Test system: RPMI-8226 leukemia
Assay: NCI-60 one-dose screen, 48 h
Details: 10 µM
Compounds without any hit were thinned out: in the full panel of roughly 83,000, 20% have a hit. Active and inactive are the calls of the source. How the source made its calls: active means growth percent below 10; inactive means the rest.
Allowed answers: class 1 (active), class 0 (inactive)

Query: Status in this test for "O=c1cc(CSc2nnc(-c3ccccc3)n2-c2ccc(F)cc2)c2ccc3ccccc3c2o1" ?
Response: class 0

Query: Status in this test for "N=C(N)c1ccc(-c2ccc(-c3cccs3)s2)nc1" ?
Response: class 1

Query: Status in this test for "O=C1/C(=C/c2cccs2)CCC/C1=C\c1cccs1" ?
Response: class 0

Query: Status in this test for "Cc1ccc(S(=O)(=O)Oc2ccccc2-c2ccccc2)cc1" ?
Response: class 0

Query: Status in this test for "Clc1cc(Cl)c(OCCCCCCN2CCNCC2)c(Cl)c1" ?
Response: class 1

Query: Status in this test for "COc1ccc2c(c1)/C(=C/c1cc(OC)c(OC)c(OC)c1)C(=O)N2C" ?
Response: class 1

Query: Status in this test for Nc1nc2c(nnn2C2CC(O)C(CO)O2)c(=O)[nH]1 (stereo unspecified) ?
Response: class 0

Query: Status in this test for CCOc1cc(Br)c(C(C)NC(=O)c2cccc(OC)c2)cc1OCC (stereo unspecified) ?
Response: class 0

Query: Status in this test for "CCn1nc(-c2ccccn2)c2cccnc2c1=S" ?
Response: class 0

Query: Status in this test for "Cc1cc(C#Cc2ccccc2)ccc1-n1c(/C=C/c2cc(O)ccc2O)nc2ccccc2c1=O" ?
Response: class 1

Query: Status in this test for "COc1ccc(-c2n/c(=C\c3c(O)[nH]c4ccccc34)cc3c2=Nc2ccccc2-3)cc1" ?
Response: class 0

* * *

// reported growth per item
System: HS 578T breast
Assay: NCI-60 one-dose screen, 48 h (100 = growth as untreated, 0 = no growth, -100 = all killed)
Details: 10 µM
About 83,000 compounds went through this panel and 20% of them were active in at least one assay; those are over-represented in the sample as a whole.
Please respond with the number in % and leave the unit unwritten.

C[C@]12CC[C@H]3[C@@H](CCC4=CC(=O)CC[C@@]43C)[C@@H]1CC[C@@H]2c1csc(N)n1 : 104
Cc1ccc(C)c(S(=O)(=O)NC2c3ccccc3Oc3ccccc32)c1 : 107
COc1ccc(-c2n/c(=C\c3c(O)[nH]c4ccccc34)cc3c2=Nc2ccccc2-3)cc1 : 80.7
COc1cc(-c2cc(/C=C/C(C)=O)[nH]n2)cc(OC)c1OC : 91.8
C=C[C@]1(C)C=C2C(=O)[C@@]3(O)OC(=O)[C@@]4(CCCC(C)(C)[C@H]34)[C@@]2(O)CC1 : 0.722
C[C@H](NC(=O)[C@@H]1CSSC[C@@H](NC(=O)Cc2nc3ccccc3cc2O)C(=O)NCC(=O)N1C)c1ccccc1 : 94.2
O=[N+]([O-])c1ccc(-c2nc(-c3ccccc3)c(-c3ccccc3)n2-c2ccccc2)cc1 : 20.5
COc1ccc(C(=O)n2nc(CC(=O)NCc3ccccc3)nc2N)cc1 : 103
O=c1cc(CSc2nnc(-c3ccccc3)n2-c2ccc(F)cc2)c2ccc3ccccc3c2o1 : 103
c1ccc(CNc2nc(Nc3ccc(-c4nc5ccccc5[nH]4)cc3)c3cn[nH]c3n2)cc1 : -6.55

So the reported growth for "O=S(=O)(NCl)c1ccccc1" , on HS 578T breast, turned out to be 102

* * *

System: ACHN renal
Experiment: NCI-60 one-dose screen, 48 h (100 = growth as untreated, 0 = no growth, -100 = all killed)
Settings: 10 µM
The panel holds about 83,000 compounds, 20% with a hit somewhere; the sample as a whole holds those more often. Calls of active or inactive are those of the source. The calls were made as follows: active = growth percent below 10; inactive = the rest.
// reported growth per item

COc1ccc(-c2[nH]ncc2/C=C/c2cc(C(F)(F)F)[nH]c(=O)n2)cc1 : 92.6% (inactive)

Okay, next one:
Quick note, growth for "CCOC(=O)c1sc(Nc2ncccn2)nc1-c1ccccn1" landed at 88.4% (inactive)

* * *

Tested on: OVCAR-4 ovarian
Assay: NCI-60 one-dose screen, 48 h (100 = growth as untreated, 0 = no growth, -100 = all killed)
Conditions: 10 µM
Method: Growth inhibition of the OVCAR-4 human tumor cell line is measured as a screen for anti-cancer activity. Cells are grown in 96 well plates and exposed to the test compound for 48 hours. Compounds are tested at a single concentration, which is 10^-5 M for most compounds. The reported endpoint is percent growth (GI% or GIPRCNT), where numbers from 0 - 100% represent growth inhibition, and numbers from -100% - 0 represent cell death. For example, a value of 40 represents 60% growth inhibition. […]
The panel holds about 83,000 compounds, 20% with a hit somewhere; the sample as a whole holds those more often.
assay readout: growth (%)
Please respond with the number in % and leave the unit unwritten.

Quick note, growth for "FC(F)(F)c1ccc(-c2cnc(Br)nc2NC2CCCCCC2)cc1" landed at 22.6

Quick note, growth for "COc1ccccc1S(=O)(=O)Nc1ccc2c(c1)CN(C)C(=O)N2" landed at 43.1

Quick note, growth for "CC(C)c1ncc(CO)n1Cc1c(Cl)cccc1Cl" landed at 116

Quick note, growth for "O=C/C=C/c1ccc([N+](=O)[O-])cc1Cl" landed at 114

Quick note, growth for CCCOCC(O)CNCCN (centres undefined) landed at 102

Value source: PubChem BioAssay (NCI)
